- assayedTarget: APE1 wild type (human)
- protocolDetails: EMSA
- recordedConditions: 1 mM EDTA (no catalysis); apparent KD; N at position 16 of strand 1 = abasic ribonucleotide analog (tetrahydrofuran with 2'-OH); EMSA: 2 nM DNA, 0-20 nM APE1, 50 mM Tris pH 8, 1 mM EDTA, 0.2 mg/ml BSA, 1 mM DTT, 5% sucrose, 30 min on ice, 10% native gel
quantityKind: pKd
Please report pKd as the negative decimal logarithm of the molar concentration, giving only the number.

Q: Specify measured pKd for CGTTCGCTGATGCGCNCGACGGATCCGCAT / ATGCGGATCCGTCGAGCGCATCAGCGAACG [30-mer rAP DNA] .
Result: 8.54
